Data provenance is patent US10618964B2.

Molecular target: soluble IL-6R in cynomolgous plasma (cynomolgus monkey, UniProt A0A2K5WN54)
Assay: plasma potency ELISA, purified Nanobody; competitor IL-6; cyno plasma
Description: In this ELISA, plasma was used as a source of native soluble IL-6R. By this assay, we aimed to confirm the alphascreen results and to get a view on the cross-reactivity of the clones towards cynomolgous IL-6R. […] Subsequently, plasma soluble IL-6R was captured on a B-N12 coated plate and bound IL-6 was detected using anti-IL-6 antibody BAF206 and streptavidin-HRP (ELISA 1 and ELISA 2). […]
pIC50: −log10 of the molar value.
Reported pIC50 is given for each of the following binders.
quantity.measured: pIC50

• IL6RPMP120G6 (VHH) VHH: EVQLVESGGDLVQTGGSLRLSCAASGITVSDRAMGWYRQAPGKQREMVAGVSRGGMTSYADSVKGRLTISRDNAKNSVYLQMNSLNPEDTAVYYCSAYYRYGSSVPQYWGQGTQVTVSS = 9.18
• IL6RPMP103C7 (VHH) VHH: EVQLVESGGGLVQAGGSLSLSCATSGRTISDDTMAWFRQAPGKEREFVATITFSGARTHYSDSVRDRFTISRDNAKNTVYLQMDSLKSEDTAVYYCAASTKYYSSTYNYIHPAFYDIWGQGTQVTVSS = 7.86
